Biological target: human SIRPα v2 expressed on cells (CHOK1 stable line KYinno KC-1720) (human) (UniProt P78324)
Assay: FACS, CHOK1-hSIRPα v2 cells
experimental_readout: pEC50
Please report pEC50 as the negative decimal logarithm of the molar concentration, giving only the number.

pEC50 recorded for this binder, hu025.060 (antibody, V domains shown) VH: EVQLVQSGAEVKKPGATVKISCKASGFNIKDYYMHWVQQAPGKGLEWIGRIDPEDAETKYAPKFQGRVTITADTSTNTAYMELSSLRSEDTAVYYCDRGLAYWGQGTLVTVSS VL: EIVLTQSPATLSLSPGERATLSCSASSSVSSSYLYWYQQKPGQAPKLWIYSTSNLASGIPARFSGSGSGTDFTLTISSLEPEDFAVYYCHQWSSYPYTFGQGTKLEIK , is 9.10
